Measured values drawn from BigSolDB 2.1 for this set.

conditions: in DMAc, 333.15 K
Readout name: solubility (mole fraction)

Exam item: Reported solubility (mole fraction) for `C=CC(=O)NC(C)(C)C` : what is it?
Marked response: 0.236

* * *

conditions: in DMAc, 313.15 K
Readout name: solubility (mole fraction)
Number only, no unit.

Exam item: Fill in the blank: the reported solubility (mole fraction) of `C=CC(=O)NC(C)(C)C` is ____.
Marked response: 0.127

* * *

conditions: in formamide, 305.15 K
Readout name: solubility (mole fraction)
Lab note: write the figure by itself, no unit.

Exam item: Can you look up the measured solubility (mole fraction) of `C=CC(=O)NC(C)(C)C` for me?
Marked response: 0.00199

* * *

settings: in DMAc, 353.15 K
Readout name: solubility (mole fraction)
Please give only the number in your answer, with no unit.

Exam item: Recorded solubility (mole fraction) of `C=CC(=O)NC(C)(C)C` , please.
Marked response: 0.43

* * *

conditions: in water, 308.15 K
Readout name: solubility (mole fraction)
Form: value (number only, do not type unit).

Exam item: What measured solubility (mole fraction) goes with `C=CC(=O)NC(C)(C)C` ?
Marked response: 0.00122

* * *

settings: in DMF, 338.15 K
Readout name: solubility (mole fraction)
Answer with a bare number; do not write a unit.

Exam item: solubility (mole fraction) for `C=CC(=O)NC(C)(C)C` ?
Marked response: 0.0987

* * *

settings: in DMAc, 343.15 K
Readout name: solubility (mole fraction)
The response must contain the number and no unit.

Exam item: Consider the compound shown here: `C=CC(=O)NC(C)(C)C` What is its recorded solubility (mole fraction)?
Marked response: 0.317

* * *

conditions: in water, 298.15 K
Readout name: solubility (mole fraction)
Just the number.

Exam item: Query: solubility (mole fraction); subject: `C=CC(=O)NC(C)(C)C`
Marked response: 0.000994

* * *

details: in ethyl acetate, 296.15 K
Readout name: solubility (mole fraction)
Answer as a number with no unit attached.

Exam item: If you can, please state the reported solubility (mole fraction) value of `C=CC(=O)NC(C)(C)C` .
Marked response: 0.0178

* * *

conditions: in ethanol, 304.15 K
Readout name: solubility (mole fraction)

Exam item: What value of solubility (mole fraction) has been reported for the following compound? `C=CC(=O)NC(C)(C)C`
Marked response: 0.00344

* * *

settings: in formamide, 334.15 K
Readout name: solubility (mole fraction)
Please give only the number in your answer, with no unit.

Exam item: If you can, please state the reported solubility (mole fraction) value of `C=CC(=O)NC(C)(C)C` .
Marked response: 0.00776

* * *

settings: in ethyl acetate, 302.15 K
Readout name: solubility (mole fraction)
Just the number.

Exam item: # query: solubility (mole fraction) of entry `C=CC(=O)NC(C)(C)C`
Marked response: 0.0204

* * *

conditions: in dichloromethane, 298.15 K
Readout name: solubility (mole fraction)

Exam item: solubility (mole fraction) lookup needed for `C=CC(=O)NC(C)(C)C` , thanks.
Marked response: 0.0128

* * *

settings: in DMAc, 318.15 K
Readout name: solubility (mole fraction)

Exam item: Find the recorded solubility (mole fraction) belonging to `C=CC(=O)NC(C)(C)C` and report it.
Marked response: 0.146

* * *

settings: in ethanol, 291.15 K
Readout name: solubility (mole fraction)
// return a plain number; no unit text

Exam item: Which value of solubility (mole fraction) has been reported for `C=CC(=O)NC(C)(C)C` in the records?
Marked response: 0.0017

* * *

settings: in ethanol, 316.15 K
Readout name: solubility (mole fraction)
Respond using a number only.

Exam item: For the molecule shown here, `C=CC(=O)NC(C)(C)C` , give the reported solubility (mole fraction).
Marked response: 0.00598

* * *

conditions: in DMAc, 303.15 K
Readout name: solubility (mole fraction)
API note: the answer field is a bare number with no unit suffix.

Exam item: Entry `C=CC(=O)NC(C)(C)C` has what solubility (mole fraction)?
Marked response: 0.0979

* * *

conditions: in ethanol, 330.15 K
Readout name: solubility (mole fraction)
Please reply with the number alone, leaving off any unit.

Exam item: Suppose we examine the compound `C=CC(=O)NC(C)(C)C` ; what solubility (mole fraction) value has been reported?
Marked response: 0.0113

* * *

settings: in DMF, 288.15 K
Readout name: solubility (mole fraction)

Exam item: For `C=CC(=O)NC(C)(C)C` , what is its reported solubility (mole fraction)?
Marked response: 0.0207

* * *

conditions: in formamide, 340.15 K
Readout name: solubility (mole fraction)
Give only the figure.

Exam item: # lookup: solubility (mole fraction) of `C=CC(=O)NC(C)(C)C`
Marked response: 0.00994

* * *

conditions: in ethyl acetate, 335.15 K
Readout name: solubility (mole fraction)
Lab note: jot down the number only; don't add units.

Exam item: Can you share its solubility (mole fraction)? I mean this compound: `C=CC(=O)NC(C)(C)C`
Marked response: 0.045

* * *

settings: in ethanol, 310.15 K
Readout name: solubility (mole fraction)
Kindly provide the number alone.

Exam item: Please give the measured solubility (mole fraction) for this compound: `C=CC(=O)NC(C)(C)C`
Marked response: 0.00463

* * *

settings: in DMAc, 338.15 K
Readout name: solubility (mole fraction)

Exam item: Entry `C=CC(=O)NC(C)(C)C` has what solubility (mole fraction)?
Marked response: 0.274

* * *

conditions: in ethanol, 307.15 K
Readout name: solubility (mole fraction)
Just the number, please, no unit attached.

Exam item: Which measured solubility (mole fraction) value corresponds to `C=CC(=O)NC(C)(C)C` ?
Marked response: 0.00392

* * *

details: in DMAc, 298.15 K
Readout name: solubility (mole fraction)
Could you keep your reply to the number by itself?

Exam item: For the molecule `C=CC(=O)NC(C)(C)C` , what solubility (mole fraction) is on record?
Marked response: 0.0897

* * *

conditions: in DMF, 318.15 K
Readout name: solubility (mole fraction)
Form: value (number only, do not type unit).

Exam item: // lookup solubility (mole fraction) for `C=CC(=O)NC(C)(C)C`
Marked response: 0.0529

* * *

settings: in water, 328.15 K
Readout name: solubility (mole fraction)
Format: numeric value only, no unit, no commentary.

Exam item: Give the measured solubility (mole fraction) of `C=CC(=O)NC(C)(C)C` .
Marked response: 0.00192

* * *

conditions: in DMAc, 293.15 K
Readout name: solubility (mole fraction)
// no unit string in output, number only

Exam item: Which solubility (mole fraction) value is on record for `C=CC(=O)NC(C)(C)C` ?
Marked response: 0.0814

* * *

conditions: in formamide, 329.15 K
Readout name: solubility (mole fraction)
When you answer, write just the number.

Exam item: Look at this compound and give its reported solubility (mole fraction). `C=CC(=O)NC(C)(C)C`
Marked response: 0.00639

* * *

settings: in dichloromethane, 291.15 K
Readout name: solubility (mole fraction)
# print the numeric value only

Exam item: Need solubility (mole fraction), item `C=CC(=O)NC(C)(C)C`
Marked response: 0.00962

* * *

details: in ethyl acetate, 320.15 K
Readout name: solubility (mole fraction)
Reply: number alone, nothing else.

Exam item: solubility (mole fraction) for `C=CC(=O)NC(C)(C)C` ?
Marked response: 0.0327

* * *

settings: in formamide, 308.15 K
Readout name: solubility (mole fraction)
Reply briefly: the number, and no unit.

Exam item: Need solubility (mole fraction), item `C=CC(=O)NC(C)(C)C`
Marked response: 0.00229

* * *

settings: in formamide, 345.15 K
Readout name: solubility (mole fraction)
Output spec: single numeric token, no unit.

Exam item: Look up solubility (mole fraction): `C=CC(=O)NC(C)(C)C`
Marked response: 0.0122

* * *

settings: in ethyl acetate, 290.15 K
Readout name: solubility (mole fraction)
Simply state the number, no unit and no words.

Exam item: Reported solubility (mole fraction), compound `C=CC(=O)NC(C)(C)C` : ____
Marked response: 0.0155

* * *

details: in water, 294.15 K
Readout name: solubility (mole fraction)
Enter the number alone.

Exam item: I would be grateful if you could share the reported solubility (mole fraction) for `C=CC(=O)NC(C)(C)C` .
Marked response: 0.000895

* * *

conditions: in ethyl acetate, 340.15 K
Readout name: solubility (mole fraction)
Quick one: just the number, no unit, thanks!

Exam item: Fill blank: measured solubility (mole fraction) of the compound `C=CC(=O)NC(C)(C)C` is ____.
Marked response: 0.0506

* * *

details: in ethanol, 324.15 K
Readout name: solubility (mole fraction)
Please give the numeric answer without any surrounding text.

Exam item: Quick one: solubility (mole fraction) for `C=CC(=O)NC(C)(C)C` ?
Marked response: 0.00864

* * *

conditions: in DMF, 343.15 K
Readout name: solubility (mole fraction)
Note: the reply should be a number with no unit written.

Exam item: What value of solubility (mole fraction) has been recorded for this entry: `C=CC(=O)NC(C)(C)C`
Marked response: 0.117

* * *

details: in water, 348.15 K
Readout name: solubility (mole fraction)

Exam item: For the compound `C=CC(=O)NC(C)(C)C` , what solubility (mole fraction) is on record?
Marked response: 0.00297

* * *

details: in DMAc, 323.15 K
Readout name: solubility (mole fraction)
Lab note: record the figure alone, no unit after it.

Exam item: Look up solubility (mole fraction): `C=CC(=O)NC(C)(C)C`
Marked response: 0.172
